- Test system: glycogen synthase kinase-3 (GSK3A per assay name; protocol says GSK3B)
- measurement_description: GSK3 binders on small-molecule microarrays, primary screen, biochemical, small-molecule microarray, 635 nm fluorescence, GSK3A (AID 1103); further: the record names both GSK3A and GSK3B
- measurement_conditions: small-molecule microarray binding, fluorescence 635 nm; higher = more signal
Hi, to clarify the labels: Criterion met covers composite z-score from 0.7 upward, Criterion not met covers anything below 0.7.

Reported composite z-score reaches at least 0.7 for "CC(C)(C)OC(=O)CC[C@]1(C(=O)NCCN2CCOCC2)N=C(c2ccc(OCCCO)cc2)O[C@H]1c1ccccc1N=[N+]=[N-]" ? Criterion met

Form field: composite z-score at least 0.7? Entry: O=C1C2C=CC(C(O)c3cc(C(F)(F)F)cc(C(F)(F)F)c3)N(Nc3ccc([N+](=O)[O-])cc3)C2C(=O)N1c1ccccc1 (stereo not drawn) Criterion met

Please check the record "CCCCC(=C=CC[C@@H](O)c1ccc(OCCO)cc1)C[C@@H](O)COCc1ccccc1" and state if its composite z-score is at or above 0.7. Criterion not met

State whether the measured composite z-score reaches 0.7, counting equality as reaching it, for "Cc1ccc(F)cc1S(=O)(=O)N[C@@H]1CCN(Cc2ccc(OC(C)C)cc2)C1" Criterion not met

Test whether the molecule "CC(C)C(=C=CC[C@H](O)c1ccc(OCCO)cc1)C[C@H](O)c1cc(Cl)cc(Cl)c1O" records composite z-score of 0.7 or higher. Criterion met

For this molecule, is measured composite z-score 0.7 or higher? CC(C)N1CC=CC23O[C@@H]4C=CCCOC(=O)C4[C@H]2C(=O)N(CCO)[C@@H]3C1=O (stereo partly drawn) Criterion not met

Is the recorded value of composite z-score equal to or greater than 0.7 for this molecule? "C=C(CCCC)C(=O)CC[C@@H](OC(=O)c1ccccc1-c1ccccc1C(=O)O)c1cccc(OCCO)c1" Criterion not met

Has NC(=O)N1C(=O)C2C(C1=O)C1C=C(c3ccc(CO)cc3)C2C(C2CC2)N1Cc1sc2ccccc2c1Cl (stereo not drawn) a recorded composite z-score greater than or equal to 0.7? Criterion met

---

- experimental_target: Streptavidin (Streptomyces avidinii)
- measurement_description: streptavidin binders on small-molecule microarray, primary screen, artefact control for SMM compound annotation, biophysical, 635/667 nm fluorescence (AID 1147);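 further: signal reflects streptavidin binding to arrayed compounds as a control protein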
- measurement_conditions: streptavidin binding, higher = more signal
For each entry below, report its composite z-score value.
Lab note: jot down the number only; don't add units.

Write down composite z-score measured for item "CC(C)(C)OC(=O)CC[C@]1(C(=O)NCCN2CCOCC2)N=C(c2ccc(OCCCO)cc2)O[C@H]1c1ccccc1N=[N+]=[N-]" 0.615

# return recorded composite z-score for input "CN1C(=O)[C@@]2(CCS(=O)(=O)c3ccccc3)N=C(c3ccc(OCCCO)cc3)O[C@H]2c2ccccc21" 1.8

Identify composite z-score associated with the molecule "C=CCNC(=O)[C@H]1[C@@H]2C(=O)O[C@@H](c3ccccc3)[C@@H](c3ccccc3)N2[C@@H](c2ccccc2OCCO)[C@]12C(=O)N(C(=O)OCCOC)c1ccc(C#CC3=CCCCC3)cc12" 1.08

Determine its reported composite z-score: COc1ccc(C(O)C2C=CC3C(=O)N(c4ccccc4)C(=O)C3N2Nc2ccc(C#N)cc2)c2ccccc12 (stereo unspecified) 2.49

Check the records and state composite z-score for C=CCC(OC(C)=O)[C@@H]1[C@@H](N(Cc2cc3ccccc3o2)C(=O)Cc2ccc(F)cc2)c2cc(OCCCO)ccc2N1C(=O)c1ccc2ccccc2n1 (stereo partly specified) 0.0443

Provide measured composite z-score value, entry: "CC(C)(C)OC(=O)CC[C@]1(C(=O)O)N=C(c2ccc(OCCCO)cc2)O[C@H]1c1ccccc1CN=[N+]=[N-]" -0.247

For the molecule "CCCC[C@@H]1C[C@H]1[C@@H](NC(=O)c1ccccc1)c1ccc(Cl)cc1" , give its reported composite z-score. -1.33

Answer with the recorded composite z-score for the molecule listed here: "COCCOC(=O)N1C(=O)[C@@]2(c3cc(C#CC4=CCCCC4)ccc31)[C@H](C(=O)N1CCN(c3ncccn3)CC1)[C@H]1C(=O)O[C@H](c3ccccc3)[C@H](c3ccccc3)N1[C@@H]2c1ccc(O)cc1" 0.45

Look up and state reported composite z-score for "CCOC(=O)C[C@H]1[C@H](OC(=O)c2ccc(-c3ccccc3)cc2)[C@@H](NC(=O)c2ccc3ccccc3n2)c2cc(OCCCO)ccc2N1C(=O)c1ccccc1" 0.968

Determine from records and report composite z-score for "C=C(COC)/C(=C/C[C@@H](OC(=O)c1ccncc1)c1ccc(CO)o1)c1cnc2ccccc2c1" 1.07

Identify composite z-score associated with the molecule CC(=O)n1cc(C(O)C2C=CC3C(=O)N(c4ccccc4)C(=O)C3N2Nc2ccccc2)c2ccccc21 (stereo unspecified) 0.862

Specify reported composite z-score for the molecule shown: "[N-]=[N+]=Nc1ccccc1[C@H]1OC(c2ccc(OCCCO)cc2)=N[C@@]1(CCS(=O)(=O)c1ccccc1)C(=O)N1CCCCC1" 1.89

Consider the molecule "C[n+]1ccc(CCCO)cc1" . State its measured composite z-score. -0.902

Quickly give me recorded composite z-score for C[C@H]1C2=C3C(CC[C@H]4C(OCc5ccc(F)cc5C(F)(F)F)OC[C@](C)([C@@H]34)N(C(=O)OC(C)(C)C)C2)C(CO)C1CO (stereo partly specified) 1.38

Let me know recorded composite z-score for "O=c1cccc(-c2ccc(C(F)(F)F)cc2)o1" , thanks. -0.43

State, in one line, measured composite z-score of "Cc1ccc(S[C@]2(C(=O)NCc3ccccc3)CC(=O)N(C(C)C)[C@@H]2c2ccc(CO)cc2I)cc1" -0.505

Item "C=C[C@H](COC(C)=O)NS(=O)(=O)c1ccc(Br)cc1" : provide composite z-score 1.16

Name the recorded composite z-score of the item "[N-]=[N+]=NCc1ccccc1C[C@@]1(C(=O)NCCN2CCOCC2)N=C(c2ccc(OCCCO)cc2)O[C@@H]1c1ccccc1N=[N+]=[N-]" in your answer. 0.408

Please indicate composite z-score recorded for "O=C1c2ccccc2[C@](Cc2ccccc2I)(C(=O)NCc2ccccc2)[C@H](c2ccc(CO)cc2)N1C1CCCCC1" 1.71

State its composite z-score: "COCCOC(=O)N1C(=O)[C@@]2(c3cc(C#CCNC(N)=O)ccc31)[C@H](C(=O)N1CCCCCCC1)[C@H]1C(=O)O[C@H](c3ccccc3)[C@H](c3ccccc3)N1[C@@H]2c1ccc(O)cc1" 0.399

Specify composite z-score for "COC(=O)[C@@]1(Cc2ccccc2)[C@H]2c3cc(C(=O)N4CCCC4)[nH]c3C[C@H]2CN1C(=O)c1ccccc1" and stop. 0.255

Identify measured composite z-score corresponding to "Cc1ccc(S[C@]2(C(=O)NC(C)C)CC(=O)N(C3Cc4ccccc4C3)[C@@H]2c2ccc(CO)cc2I)cc1" -0.959

Return reported composite z-score. Input molecule: COC(=O)C1(Cc2ccccc2)C=C2C(=C(C(C)C)C(=O)C2C)CN1 (stereo unspecified) -0.333

State its composite z-score for this molecule: "[N-]=[N+]=Nc1ccccc1C[C@@]1(C(=O)O)N=C(c2ccc(OCCCO)cc2)O[C@@H]1c1ccccc1" 1.48

Look up composite z-score of "COc1cc(CO)cc(I)c1O[C@H]1C=C(C(=O)NCCO)C[C@@H](NCc2ccccc2F)[C@@H]1O" and report it. -0.0401

Answer with the recorded composite z-score of "Cc1ccc(F)cc1S(=O)(=O)N[C@@H]1CCN(Cc2ccc(OC(C)C)cc2)C1" only. -0.293

Give the value of composite z-score reported for the following: C[C@]12C(=O)N(CCCCCCO)[C@@H]3C(=O)N(c4ccc(Cl)cc4)CC=CC31O[C@@H]1/C=C\CCCOC(=O)C12 (stereo partly specified) -0.781

Quote composite z-score reported for "COCC(=C=CC[C@H](O)c1cccc(OCCO)c1)C[C@H](O)c1ccccn1" please. -0.368

Tell me measured composite z-score for CCCCC(CC)C(O)C1C=CC2C(=O)N(c3ccccc3)C(=O)C2N1Nc1ccc([N+](=O)[O-])cc1 (stereo unspecified) please. 1.41

For the molecule "O=C(O)[C@H]1C[C@H]2C(=O)N3CCC[C@H]3C(=O)N2[C@H]1c1cccc(OCCO)c1" , give its reported composite z-score. -0.0748

Read off the recorded composite z-score for "CC(C)CNC(=O)[C@@]1(c2ccc([N+](=O)[O-])cc2)CC(=O)N(C2CCCCC2)[C@@H]1c1ccc(CO)cc1I" -0.018

---

- Tested on: XIP peptide (Xip251-270) binding
- measurement_description: small-molecule binders of XIP peptide, primary screen, biochemical, small-molecule microarray, fluorescence 635/667 nm, 0.1 µg/mL protein (AID 1182)
- measurement_conditions: fluorescent protein binding, 635 nm, higher = more signal, called active from +8 up or from −8 down
Hi there, I'd appreciate the recorded composite z-score for every entry that follows.
// return just the number, without any unit appended

Please report the measured composite z-score for "C=C[C@@H](C)[C@H](OC(=O)Nc1ccc(SC)cc1)c1ccc(OCCO)cc1" tested on XIP peptide (Xip251-270) binding. 0.263

Under XIP peptide (Xip251-270) binding: report composite z-score of "COc1ccc([Si](C)(C)[C@H]2[C@H](CCn3cc([C@H](O)c4ccccc4)nn3)O[C@@]3(C(=O)N(Cc4cccc(N5C(=O)c6cccc7cccc5c67)c4)c4ccccc43)[C@@H]2C)cc1" . 0.75

Consider the compound Cc1ccc(C(C)CC(O)C2C=CC3C(=O)N(c4ccccc4)C(=O)C3N2Nc2ccc(C(C)C)cc2)o1 (configuration not stated) tested on XIP peptide (Xip251-270) binding; state its composite z-score. 0.195

Provide composite z-score, system XIP peptide (Xip251-270) binding, entry "O=C(CS)NCCCCCCNC(=O)[C@H]1C[C@H]2C(=O)N[C@@H](Cc3ccccc3)C(=O)N2[C@H]1c1cccc(OCCO)c1" 0.168

Report the value of composite z-score obtained on XIP peptide (Xip251-270) binding for "COC(=O)[C@@]1(Cc2ccccc2)[C@H]2c3cc(C(=O)N4CCCC4)[nH]c3C[C@H]2CN1C(=O)c1ccccc1" . 0.282

Output reported composite z-score of the compound "O=C1O[C@H](c2ccccc2)[C@H](c2ccccc2)N2[C@H]1[C@@H](C(=O)O)[C@]1(C(=O)Nc3ccccc31)[C@H]2c1ccc(O)cc1" on XIP peptide (Xip251-270) binding. 0.624

Look up XIP peptide (Xip251-270) binding data: composite z-score of "[N-]=[N+]=Nc1ccccc1[C@@H]1OC(c2ccc(OCCCO)cc2)=N[C@]1(CCS(=O)(=O)c1ccccc1)C(=O)NCCN1CCOCC1" , then report it. 0.691
